Target: human CB1 receptor (Homo sapiens, UniProt P21554)
Construct: expressed in transfected cells; host or cells: SK-N-MC cells, stably transfected with pcDNA3 CB-1 (human); semi-purified membrane pellet
Sequence (P21554 whole entry): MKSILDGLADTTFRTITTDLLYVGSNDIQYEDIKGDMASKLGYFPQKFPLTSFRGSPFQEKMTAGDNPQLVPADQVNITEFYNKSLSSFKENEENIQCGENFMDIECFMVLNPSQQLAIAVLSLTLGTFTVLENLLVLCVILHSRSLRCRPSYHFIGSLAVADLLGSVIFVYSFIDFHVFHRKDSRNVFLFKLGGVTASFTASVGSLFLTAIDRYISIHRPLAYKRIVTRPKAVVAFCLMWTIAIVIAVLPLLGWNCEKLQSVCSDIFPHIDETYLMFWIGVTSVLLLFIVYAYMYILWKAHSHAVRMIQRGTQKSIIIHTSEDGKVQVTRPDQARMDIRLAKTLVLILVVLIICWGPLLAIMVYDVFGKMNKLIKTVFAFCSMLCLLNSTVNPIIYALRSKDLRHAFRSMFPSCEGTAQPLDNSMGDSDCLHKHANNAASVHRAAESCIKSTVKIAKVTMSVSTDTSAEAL
Assay: Binding assay for CB1 agonists or inverse agonists, [3H]-CP-55,940 displacement on membranes of transfected SK-N-MC cells
Details: read-out: Cannabinoid CB1 Receptor Binding percent inhibition
Experimental: The human CB1 and CB2 receptors were stably expressed in SK-N-MC cells transfected with pcDNA3 CB-1 (human) or pcDNA3 CB-2 (human). […] On the day of the assay, the pellet was thawed on ice and diluted in assay buffer (50 mM Tris-HCl, 5 mM MgCl2, 2.5 mM EDTA, 0.5 mg/mL fatty acid free bovine serum albumin, pH 7.5). […] The Unifilter plate was dried, a scintillation cocktail was added to each well and the counts representing binding were quantitated in a TopCount scintillation counter. […]
property: inhibition at 0.2 µM (%)
Express it in %; write the number only.

A selection of reference data follows.
[
  {
    "compound": "COc1ccc(-c2c3c(nn2-c2ccc(Cl)cc2Cl)C(C(=O)NN2CCCCCC2)CCC3)cc1 (stereo not shown)",
    "inhibition at 0.2 µM (%)": 59
  },
  {
    "compound": "C[C@@H](NC(=O)[C@H]1CCCc2c1nn(-c1ccc(Cl)cc1Cl)c2-c1ccc(F)cc1)c1ccccc1",
    "inhibition at 0.2 µM (%)": 50
  },
  {
    "compound": "O=C(NN1CC2CCCC2C1)C1CCCc2c1nn(-c1ccc(Cl)cc1Cl)c2-c1ccc(Cl)cc1 (stereo not shown)",
    "inhibition at 0.2 µM (%)": 39
  }
]

Field: next compound
Request: Requested read-out: inhibition at 0.2 µM. Entry: C[C@@H](NC(=O)[C@H]1CCCc2c1nn(-c1ccc(Cl)cc1Cl)c2-c1ccc(Cl)s1)c1ccccc1
Result: 38

* * *

Molecular target: human CB2 receptor (Homo sapiens, UniProt P34972)
Construct: expressed in transfected cells; host or cells: SK-N-MC cells, stably transfected with pcDNA3 CB-2 (human); semi-purified membrane pellet
Sequence (P34972 whole entry): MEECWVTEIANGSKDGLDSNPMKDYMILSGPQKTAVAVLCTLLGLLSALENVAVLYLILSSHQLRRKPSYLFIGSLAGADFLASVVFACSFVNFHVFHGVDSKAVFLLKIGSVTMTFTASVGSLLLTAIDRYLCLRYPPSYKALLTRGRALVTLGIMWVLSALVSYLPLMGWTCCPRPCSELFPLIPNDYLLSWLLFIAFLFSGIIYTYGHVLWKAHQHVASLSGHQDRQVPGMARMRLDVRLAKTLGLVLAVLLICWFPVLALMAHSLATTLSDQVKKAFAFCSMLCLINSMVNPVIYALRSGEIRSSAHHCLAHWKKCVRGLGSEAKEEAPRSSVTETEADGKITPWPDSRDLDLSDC
Test: Binding assay for CB2 agonists or inverse agonists, [3H]-CP-55,940 displacement on membranes of transfected SK-N-MC cells
Conditions: read-out: Cannabinoid CB2 Receptor Binding percent inhibition
Procedure: The human CB1 and CB2 receptors were stably expressed in SK-N-MC cells transfected with pcDNA3 CB-1 (human) or pcDNA3 CB-2 (human). […] On the day of the assay, the pellet was thawed on ice and diluted in assay buffer (50 mM Tris-HCl, 5 mM MgCl2, 2.5 mM EDTA, 0.5 mg/mL fatty acid free bovine serum albumin, pH 7.5). […] The Unifilter plate was dried, a scintillation cocktail was added to each well and the counts representing binding were quantitated in a TopCount scintillation counter. […]
Returns one of fulfilled or not fulfilled; fulfilled when inhibition at 0.2 µM is >= 3%.

[
  {
    "compound": "COC[C@H]1CCCN1NC(=O)C1CCCc2c1nn(-c1ccc(Cl)cc1Cl)c2-c1ccc(OC)cc1 (stereo partly shown)",
    "discrete label": "fulfilled"
  },
  {
    "compound": "COc1ccc(-c2c3c(nn2-c2ccc(Cl)cc2Cl)C(C(=O)NN2CCCCCC2)CCC3)cc1 (stereo not shown)",
    "discrete label": "fulfilled"
  },
  {
    "compound": "C[C@@H](NC(=O)[C@H]1CCCc2c1nn(-c1ccc(Cl)cc1Cl)c2-c1ccc(F)cc1)c1ccccc1",
    "discrete label": "fulfilled"
  },
  {
    "compound": "C[C@@H](NC(=O)[C@H]1CCCc2c1nn(-c1ccc(Cl)cc1Cl)c2-c1ccc(Cl)s1)c1ccccc1",
    "discrete label": "not fulfilled"
  },
  {
    "compound": "C[C@@H](NC(=O)[C@@H]1CCCc2c1nn(-c1ccc(Cl)cc1Cl)c2-c1ccc(Cl)s1)c1ccccc1",
    "discrete label": "fulfilled"
  }
]

Request: Check the entry O=C(NN1CCCCC1)C1CCCc2c1nn(-c1ccc(Cl)cc1Cl)c2-c1ccc(Cl)cc1 (stereo not shown) : does inhibition at 0.2 µM equal or exceed 3%?
Result: not fulfilled

Each recorded value in this set is attributed to patent US7795294B2.
